Quick list: melting point per entry.

Entry "COC(=O)C(=NO)c1cnsc1" has what melting point?
110 to 112 °C

Would you mind telling me what melting point value was observed for "Cc1nc(N)nc(N)c1C#CC(C)(C)c1ccc(C(F)(F)F)cc1" ?
153 to 157 °C

Recorded melting point of "CC(C)[C@H](NC(=O)N(C)Cc1csc(C2CC2)n1)C(=O)N[C@@H](Cc1ccccc1)C[C@H](O)[C@H](Cc1ccccc1)NC(=O)OCc1cncs1" , please.
70 to 71 °C

So what does the record say about melting point for CC(CC(C(=O)N(C)C)(c1ccccc1)c1ccccc1)N1CCC(NC(=O)c2cccc(C(F)(F)F)c2)C(O)C1 (configuration not stated) ?
141 °C

Need melting point, item "CS(=O)(=O)c1ccc(-c2cc(CCCO[N+](=O)[O-])nn2CC2CCCCC2)cc1"
76 to 77 °C

Look up melting point: "CCOCc1nc2c(N)nc3ccccc3c2n1CCCCCS(=O)(=O)NC"
175 to 179 °C

I'd like to know its melting point. The molecule in question is "Cn1cc(-c2ccc(O)cc2)c(=O)c(-c2cccc(C(F)(F)F)c2)c1"
162 to 163 °C

So what does the record say about melting point for "Cc1c(CP(=O)(OCCCl)OCCCl)cc(C(C)(C)C)c(O)c1C" ?
133 to 135 °C

###

Recorded measurements of melting point, one per entry

Solved entries (count: 3):
# lookup: melting point of O=C(O)CCCCC1SCc2[nH]c(=O)[nH]c21 (single isomer, unassigned; (-))
189 to 199 °C

// lookup melting point for CCCCC(CC)COc1ccc(-c2nc(-c3ccc(OCC(CC)CCCC)cc3)nc(-c3ccc(OCC(CC)CCCC)cc3O)n2)cc1 (centres undefined)
93 to 95 °C

Could you share which melting point value was measured for "CCNC(=O)C(=O)[C@H](Cc1ccccc1)NC(=O)[C@H](CC(C)C)NC(=O)OC1CCOCC1" ?
140 to 142 °C

Continuing:
What value of melting point has been reported for the following compound? "O=c1n(CO)c2cccnc2n1-c1ccc2c(c1)OCO2"
268 °C

Give the measured melting point of "C[C@H](O)CN1CCN(c2ccc(Nc3ncc4ccc(-c5ccccc5N(C)S(C)(=O)=O)n4n3)cc2F)CC1" .
165 °C

Any idea what its melting point is? The compound is "O=c1c2cc(SC(F)(F)F)ccc2ccn2cccc12"
155 to 159 °C

For the compound "Cc1cc(-n2ccc(OCCC3CC3)cc2=O)sc1C(=O)NCc1ccccc1" , what melting point is on record?
134 to 136 °C

Report melting point for COC(=O)C1Sc2cc(OCc3ccccc3)ccc2OCC1=O (centres undefined) please.
101 to 102 °C

Can you look up the measured melting point of CCC1c2cccn2-c2ccc(Cl)cc2N1S(=O)(=O)c1ccc(O)c(C)c1 (centres undefined) for me?
170 to 172 °C

Query: melting point; subject: "COC1=CC(=O)C(OC)=C(CCCCCC2=C(OC)C(=O)C(C)=C(OC)C2=O)C1=O"
48 to 49 °C

Recorded melting point for CCn1cc(C(=O)O)c(=O)c2cc(F)c(N3CCNC(c4cc[nH]c4)C3)cc21 (centres undefined) , please?
220 °C

Fill in the blank: the reported melting point of "CCOC(=O)c1ccc(C(=O)CCc2ccc(S(C)(=O)=O)cc2)cc1" is ____.
118 to 120 °C

From: a melting point compilation (Tetko et al.; mined from patent text by program, amines drawn as free bases though some values may be those of a salt)
